B1: tRNA (parent)
chain: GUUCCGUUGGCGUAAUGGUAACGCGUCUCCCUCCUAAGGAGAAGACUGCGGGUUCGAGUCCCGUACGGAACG

- Variants of: B1
- procedure_summary: yeast fitness relative to wild type (ratio to wild type); higher = fitter; tRNA-Arg(CCU), competitive growth, 37 C, YPD
This sample holds only a part of the variants without activity.
parameter: yeast fitness
// response body must contain only the number

Look up and report measured yeast fitness for this entry: U16G C62A
0.643

Look up and report measured yeast fitness for this entry: U13C U59A
0.768

Look up and report measured yeast fitness for this entry: G10A G23C G52A
0.565

Look up and report measured yeast fitness for this entry: C11U C55A
0.678

Look up and report measured yeast fitness for this entry: C27G U28A C30G C31U
0.51
